# System: PRKACA-PRKAR2A interaction (SmBiT-PRKACA / LgBiT-PRKAR2A), protein kinase A
# Design: NanoLuc complementation counter-screen in cell extract, PRKACA with PRKAR2A, loss of luminescence, detects NanoLuc interference
# run.parameters: counter-screen for NanoLuc interference, 0.5 h, 20 µM, inhibitor, Inh (PKA)
Counter-ions that a name gives are not always drawn.
quantity.kind: Inh (PKA) (%)
Report the value in % with no unit label.

Q: Which measured Inh (PKA) value corresponds to CCCC(CCC)C(=O)O [UM0142234:01, Divalproex Sodium] ?
A: 2.043

Q: Which measured Inh (PKA) value corresponds to CC(=O)Oc1cc2c(s1)CCN(C(C(=O)C1CC1)c1ccccc1F)C2 (stereo not drawn) [UM0142193:01, Prasugrel hydrochloride] ?
A: 10.44

Q: Which measured Inh (PKA) value corresponds to C#Cc1cccc(Nc2ncnc3cc(OCCOC)c(OCCOC)cc23)c1 [UM0127944:02, Erlotinib] ?
A: 7.481

---

Provide the recorded Inh (PKA) for the entries that follow.
# Tested on: PRKACA-PRKAR2A interaction (SmBiT-PRKACA / LgBiT-PRKAR2A), protein kinase A
# Parameters: NanoLuc complementation counter-screen in cell extract, PRKACA with PRKAR2A, loss of luminescence, detects NanoLuc interference
# run.parameters: counter-screen for NanoLuc interference; 0.5 h, 20 µM; inhibitor
Write the numeric value and follow it with the unit.

Q: Request - read-out Inh (PKA) | tested on PRKACA-PRKAR2A interaction (SmBiT-PRKACA / LgBiT-PRKAR2A), protein kinase A | molecule C=C1CC[C@@H]2[C@](C)(CO)[C@H](O)CC[C@@]2(C)[C@@H]1C/C=C1/C(=O)OC[C@H]1O [UM0142859:01, Andrographolide]
A: 1.527%

Q: Request - read-out Inh (PKA) | tested on PRKACA-PRKAR2A interaction (SmBiT-PRKACA / LgBiT-PRKAR2A), protein kinase A | molecule CC(C)(C)C(=O)OCOP(=O)(COCCn1cnc2c(N)ncnc21)OCOC(=O)C(C)(C)C [UM0142452:01, Adefovir Dipivoxil]
A: -0.7793%

Q: Request - read-out Inh (PKA) | tested on PRKACA-PRKAR2A interaction (SmBiT-PRKACA / LgBiT-PRKAR2A), protein kinase A | molecule O=C(CSc1nc2c(c(=O)n1-c1ccccc1)SCC2)Nc1ccc(-c2ccccc2)cn1 [UM0142486:01, IWP-L6]
A: 23.47%

Q: Request - read-out Inh (PKA) | tested on PRKACA-PRKAR2A interaction (SmBiT-PRKACA / LgBiT-PRKAR2A), protein kinase A | molecule NC(=O)Cc1cccc(C(=O)c2ccccc2)c1N [UM0141488:01, Nepafenac]
A: 7.116%

Q: Request - read-out Inh (PKA) | tested on PRKACA-PRKAR2A interaction (SmBiT-PRKACA / LgBiT-PRKAR2A), protein kinase A | molecule C#CCC(Cc1cnc2nc(N)nc(N)c2n1)c1ccc(C(=O)N[C@@H](CCC(=O)O)C(=O)O)cc1 (some centres unmarked) [UM0141802:01, Pralatrexate]
A: 2.023%

---

# System: PRKACA-PRKAR2A interaction (SmBiT-PRKACA / LgBiT-PRKAR2A), protein kinase A
# Parameters: NanoLuc complementation counter-screen in cell extract, PRKACA with PRKAR2A, loss of luminescence, detects NanoLuc interference
# run.parameters: counter-screen for NanoLuc interference; 0.5 h, 20 µM; inhibitor
Provide the recorded Inh (PKA) for the entries that follow.

Q: Which measured Inh (PKA) value corresponds to `COc1cc(/C=C/CO)cc(OC)c1O[C@@H]1O[C@H](CO)[C@@H](O)[C@H](O)[C@H]1O` ?
A: -0.4642%

Q: Which measured Inh (PKA) value corresponds to `COc1ccnc2[nH]cc(C(=O)C(=O)N3CCN(C(=O)c4ccccc4)C[C@H]3C)c12` ?
A: 0.2509%

Q: Which measured Inh (PKA) value corresponds to Nc1ccc2ncnc(NCCc3ccc(Oc4ccccc4)cc3)c2c1 [UM0127892:02, QNZ (EVP4593)] ?
A: 24.11%

Q: Which measured Inh (PKA) value corresponds to `C[C@]1(O)C[C@@H](c2nc(-c3ccc4ccc(-c5ccccc5)nc4c3)c3c(N)nccn32)C1` ?
A: 15.97%

Q: Which measured Inh (PKA) value corresponds to O=C(O)CCCCC(CCSCc1ccccc1)SCc1ccccc1 (centres unmarked) ?
A: 31.69%

Q: Which measured Inh (PKA) value corresponds to `Cn1cc(C2=C(c3cn(C4CCN(Cc5ccccn5)CC4)c4ccccc34)C(=O)NC2=O)c2ccccc21` ?
A: 49.88%

Q: Which measured Inh (PKA) value corresponds to `NC(=O)c1ncn([C@@H]2O[C@H](CO)[C@@H](O)[C@H]2O)c1O` ?
A: -0.2089%

Q: Which measured Inh (PKA) value corresponds to `CCc1cncnc1N1CCN(Cc2nc3ccc(C(F)(F)F)cc3[nH]2)CC1` ?
A: 34.33%

Q: Which measured Inh (PKA) value corresponds to `CN([C@@H](Cc1ccc(OS(=O)(=O)c2cccc3cnccc23)cc1)C(=O)N1CCN(c2ccccc2)CC1)S(=O)(=O)c1cccc2cnccc12` ?
A: 9.099%

Q: Which measured Inh (PKA) value corresponds to `CC(C)C[C@H](NC(=O)[C@@H](NC(=O)c1cccc(-c2ccccc2)n1)[C@@H](C)O)B(O)O` ?
A: 2.205%

Q: Which measured Inh (PKA) value corresponds to `O=C1NC(=O)C(c2ccccc2)(c2ccccc2)N1` ?
A: 11.36%

---

Provide the recorded Inh (PKA) for the entries that follow.
# Test system: PRKACA-PRKAR2A interaction (SmBiT-PRKACA / LgBiT-PRKAR2A), protein kinase A
# Set-up: NanoLuc complementation counter-screen in cell extract, PRKACA with PRKAR2A, loss of luminescence, detects NanoLuc interference
# run.parameters: counter-screen for NanoLuc interference; 0.5 h, 20 µM; inhibitor
Report the value in % with no unit label.

Q: Which measured Inh (PKA) value corresponds to `COc1cc(CCc2cc(NC(=O)c3ccc(N4C[C@@H](C)N[C@@H](C)C4)cc3)n[nH]2)cc(OC)c1` ?
A: 12.3

Q: Which measured Inh (PKA) value corresponds to NC(=O)C1CCCc2c1[nH]c1ccc(Cl)cc21 (centres unmarked) [UM0128555:02, EX 527 (SEN0014196)] ?
A: 3.362

Q: Which measured Inh (PKA) value corresponds to `CCCCCCCCCCCCCC(=S)NCCCC[C@H](NC(=O)OCc1ccccc1)C(=O)Nc1ccccc1` ?
A: -1.991

Q: Which measured Inh (PKA) value corresponds to `NC(=O)c1cccc(-c2cccc(OC(=O)NC3CCCCC3)c2)c1` ?
A: 16.26

Q: Which measured Inh (PKA) value corresponds to `C[C@H]1CCC/C=C/[C@@H]2C[C@H](O)C[C@H]2[C@H](O)/C=C/C(=O)O1` ?
A: 1.414

Q: Which measured Inh (PKA) value corresponds to `Nc1nnc(-c2cccc(Cl)c2Cl)c(N)n1` ?
A: 0.956

Q: Which measured Inh (PKA) value corresponds to `CC[C@H](c1ccc(O)cc1)[C@@H](CC)c1ccc(O)cc1` ?
A: 49.6

Q: Which measured Inh (PKA) value corresponds to `CC(C)(C(=O)NCC(F)(F)C(F)(F)F)C(=O)N[C@@H]1C(=O)Nc2ccccc2-c2ccccc21` ?
A: 10.15

Q: Which measured Inh (PKA) value corresponds to `O=C(O)C(=O)c1cn(Cc2ccccc2)c2ccc(-c3ccc(OC(F)(F)F)cc3)cc12` ?
A: 36.69

Q: Which measured Inh (PKA) value corresponds to `CNCc1ccc(-c2cc(-c3nc(-c4ccc(S(=O)(=O)C(C)C)cc4)cnc3N)on2)cc1` ?
A: 14.15

Q: Which measured Inh (PKA) value corresponds to O=C(O[C@@H]1Cc2c(O)cc(O)cc2O[C@@H]1c1cc(O)c(O)c(O)c1)c1cc(O)c(O)c(O)c1 [UM0119174:03, (-)-Epigallocatechin gallate (EGCG)] ?
A: 17.48

---

# Test system: PRKACA-PRKAR2A interaction (SmBiT-PRKACA / LgBiT-PRKAR2A), protein kinase A
# Parameters: NanoLuc complementation counter-screen in cell extract, PRKACA with PRKAR2A, loss of luminescence, detects NanoLuc interference
# run.parameters: counter-screen for NanoLuc interference; 0.5 h, 20 µM; inhibitor
Structures can show the parent of a compound that is named as a salt.
Provide the recorded Inh (PKA) for the entries that follow.

Q: Which measured Inh (PKA) value corresponds to CNS(=O)(=O)Cc1ccc2[nH]cc(CCN(C)C)c2c1 [UM0141877:01, Sumatriptan Succinate] ?
A: 0.457%

Q: Which measured Inh (PKA) value corresponds to N[C@@H]1C[C@H]1c1ccccc1 [UM0142789:01, Tranylcypromine hydrochloride] ?
A: -0.9566%

Q: Which measured Inh (PKA) value corresponds to `CNC(=O)c1ccccc1Nc1nc(Nc2ccc(N3CCOCC3)cc2OC)ncc1Cl` ?
A: 15.32%

Q: Which measured Inh (PKA) value corresponds to `Cc1cc(NC(=O)c2cccc(NC(=O)/C=C/CN(C)C)c2)ccc1Nc1nccc(-c2cccnc2)n1` ?
A: 12.62%

Q: Which measured Inh (PKA) value corresponds to `N#C[C@@H]1CCCN1C(=O)CNC12CC3CC(CC(O)(C3)C1)C2` ?
A: 0.7818%

Q: Which measured Inh (PKA) value corresponds to `NC(=O)Nc1cc(-c2cccc(F)c2)sc1C(=O)N[C@H]1CCCNC1` ?
A: 35.89%

Q: Which measured Inh (PKA) value corresponds to `NS(=O)(=O)c1ccc(NC(=O)Nc2ccc(F)cc2)cc1` ?
A: 3.096%

Q: Which measured Inh (PKA) value corresponds to `CC(C)C[C@H](NC(=O)[C@H](Cc1ccccc1)NC(=O)c1cnccn1)B(O)O` ?
A: 1.59%

Q: Which measured Inh (PKA) value corresponds to `N#C/C(=C\c1ccc(O)c(O)c1)C(=O)NCc1ccccc1` ?
A: 36.26%
